Dear all, this message contains AC50 results, target or system Mu-type opioid receptor (Homo sapiens). Also: assay procedure not described here.
assay.metric: AC50

O=c1[nH]c(=O)n(C2CCCO2)cc1F (stereo unspecified) | > 30 µM
CC(CNC(=O)c1ccccc1)C(=O)OCC(=O)[C@@]12OC(C)(C)O[C@@H]1C[C@H]1[C@@H]3CCC4=CC(=O)C=C[C@]4(C)[C@@]3(F)[C@@H](O)C[C@@]12C (stereo partly specified) [TRIAMCINOLONE BENETONIDE] | > 30 µM
CCC(C)(C)c1ccc(CC(C)CN2C[C@@H](C)O[C@@H](C)C2)cc1 (stereo partly specified) | > 30 µM
CC[C@]1(O)C[C@H]2CN(CCc3c([nH]c4ccccc34)[C@@](C(=O)OC)(c3cc4c(cc3OC)N(C=O)[C@H]3[C@@](O)(C(=O)OC)[C@H](OC(C)=O)[C@]5(CC)C=CCN6CC[C@]43[C@@H]65)C2)C1 | > 30 µM
COC1=C(OC)C(=O)C(C/C=C(\C)CC/C=C(\C)CC/C=C(\C)CC/C=C(\C)CC/C=C(\C)CC/C=C(\C)CC/C=C(\C)CC/C=C(\C)CC/C=C(\C)CCC=C(C)C)=C(C)C1=O | > 30 µM
CCN(CC)CCNc1ccc(CO)c2sc3ccccc3c(=O)c12 | 23 µM
CC(C)(C)NC[C@H](O)COc1ccccc1C1CCCC1 | 11.9 µM
CCCCCCOc1nsnc1C1=CCCN(C)C1 | > 30 µM
O=C(OCC(O)CO)c1ccccc1Nc1ccnc2cc(Cl)ccc12 (stereo unspecified) | 28.7 µM
Cc1cn([C@H]2C=C[C@@H](CO)O2)c(=O)[nH]c1=O | > 30 µM
NC1CCN(c2c(F)cc3c(=O)c(C(=O)O)cn(C4CC4)c3c2Cl)C1 (stereo unspecified) | 4.91 µM
COc1ccc(C(=O)Nc2ccccc2CCC2CCCCN2C)cc1 (stereo unspecified) [ENCAINIDE] | > 30 µM
CC(=O)Oc1ccc2c(c1)CC[C@@H]1[C@@H]2CC[C@]2(C)[C@@H](O)CC[C@@H]12 [ESTRADIOL ACETATE] | 9.04 µM
Nc1nc2nc[nH]c2c(=S)[nH]1 | > 30 µM
Cc1cc(C)c(NC(=O)CN(CC(=O)O)CC(=O)O)c(C)c1Br | > 30 µM
O=C(O)c1ccccc1C(=O)Nc1ccc(S(=O)(=O)Nc2nccs2)cc1 | > 30 µM

----------
# assayed.target: Muscarinic acetylcholine receptor M1 (Homo sapiens); also: assay procedure not described here
# Sequence (P11229 whole entry): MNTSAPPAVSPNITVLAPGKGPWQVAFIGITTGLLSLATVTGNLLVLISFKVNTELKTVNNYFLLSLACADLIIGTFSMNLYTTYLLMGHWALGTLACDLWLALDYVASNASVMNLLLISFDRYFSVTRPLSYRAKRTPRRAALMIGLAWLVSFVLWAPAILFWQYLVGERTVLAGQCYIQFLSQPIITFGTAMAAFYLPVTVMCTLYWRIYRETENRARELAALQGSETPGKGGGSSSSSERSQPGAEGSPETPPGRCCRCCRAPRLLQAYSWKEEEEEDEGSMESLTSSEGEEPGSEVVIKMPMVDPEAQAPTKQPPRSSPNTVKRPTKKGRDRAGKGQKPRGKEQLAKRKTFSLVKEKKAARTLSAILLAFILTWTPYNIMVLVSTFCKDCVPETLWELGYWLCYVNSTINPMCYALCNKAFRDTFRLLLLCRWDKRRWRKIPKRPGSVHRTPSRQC
# Assay type: functional, cell-based
The compounds listed here are annotated with their AC50.
assay.metric: AC50

Nc1ccncc1N | > 30 µM
COc1ccc2c(c1)N(C[C@H](C)CN(C)C)c1ccccc1S2 | 0.331 µM
O=C(CCNNC(=O)c1ccncc1)NCc1ccccc1 [NIALAMIDE] | > 30 µM
CC1=C(/C=C/C(C)=C/C=C/C(C)=C/C=C/C=C(C)/C=C/C=C(C)/C=C/C2=C(C)CCCC2(C)C)C(C)(C)CCC1 | > 30 µM
COC1=C(OC)C(=O)C(C/C=C(\C)CC/C=C(\C)CC/C=C(\C)CC/C=C(\C)CC/C=C(\C)CC/C=C(\C)CC/C=C(\C)CC/C=C(\C)CC/C=C(\C)CCC=C(C)C)=C(C)C1=O | > 30 µM
CC(C)(C)NC[C@H](O)COc1ccccc1C1CCCC1 | 13.5 µM
CN1CCN(C2=Nc3ccccc3Sc3ccc(Cl)cc32)CC1 | 0.42 µM
CC(C)Nc1ncccn1 | > 30 µM
CCCCCNC(=N)N/N=C/c1c[nH]c2ccc(OC)cc12 | > 3 µM
N[C@H](C(=O)O)[C@H](O)c1ccc(O)c(O)c1 | > 30 µM
OB1OCc2cc(F)ccc21 | > 30 µM
CCOc1ccccc1C(N)=O [ETHENZAMIDE] | > 30 µM
CC(C)(C)C(=O)OCOC(=O)[C@@H]1N2C(=O)[C@@H](NC(=O)[C@H](N)c3ccccc3)[C@H]2SC1(C)C | 23 µM
CC(C)(C)C(=O)C(Oc1ccc(Cl)cc1)n1ccnc1 (stereo not given) | 10.2 µM
C=CCc1ccccc1OCC(O)CNC(C)C (stereo not given) | > 0.3 µM
Cc1ccccc1OCC(O)CO (stereo not given) | > 30 µM
N[C@H]1C(O)O[C@H](CO)[C@@H](O)[C@@H]1O (stereo not given in full) | > 30 µM
O=C(O)c1ccccc1C(=O)Nc1ccc(S(=O)(=O)Nc2nccs2)cc1 | > 30 µM
CC(C)(C)NCC(O)COc1cccc2c1SCCC2 (stereo not given) | > 30 µM
OC[C@@H](O)[C@H](O)[C@@H](O)CO | > 30 µM
CN(C)[C@@H](c1cccc(O)c1)[C@H]1CCCC[C@H]1O | > 30 µM
CC(CNC(=O)c1ccccc1)C(=O)OCC(=O)[C@@]12OC(C)(C)O[C@@H]1C[C@H]1[C@@H]3CCC4=CC(=O)C=C[C@]4(C)[C@@]3(F)[C@@H](O)C[C@@]12C (stereo not given in full) [TRIAMCINOLONE BENETONIDE] | > 30 µM
CC(=O)Oc1ccc2c(c1)CC[C@@H]1[C@@H]2CC[C@]2(C)[C@@H](O)CC[C@@H]12 [ESTRADIOL ACETATE] | 7.24 µM
O=C(Cc1ccc(-c2ccccc2)cc1)Nc1ccccn1 [DIFENPIRAMIDE] | > 10 µM
CCOc1ccccc1OCC1CNCCO1 (stereo not given) | > 30 µM
Cc1cc(OP(=O)(O)O)c2ccccc2c1OP(=O)(O)O [MENADIOL SODIUM DIPHOSPHATE] | > 30 µM
OC(CCN1CCCCC1)(c1ccccc1)c1ccccc1 | 0.0824 µM
CC(=O)c1ccc2c(c1)N(CCCN(C)C)c1ccccc1S2 | 0.151 µM
NC1=NCC2c3ccccc3Cc3ccccc3N12 (stereo not given) [EPINASTINE] | > 30 µM
O=[N+]([O-])c1cn2c(n1)OC[C@@H](OCc1ccc(OC(F)(F)F)cc1)C2 | 10.6 µM
CC[C@H]1[C@@H](O)[C@@H]2[C@H](CC[C@]3(C)[C@@H]([C@H](C)CCC(=O)O)CC[C@@H]23)[C@@]2(C)CC[C@@H](O)C[C@@H]12 | > 30 µM
CC(=O)[C@@]1(O)CC[C@H]2[C@@H]3C=C(C)C4=CC(=O)CC[C@]4(C)[C@H]3CC[C@@]21C | 15.3 µM
C[S+](CC[C@H](N)C(=O)[O-])C[C@H]1O[C@@H](n2cnc3c(N)ncnc32)[C@H](O)[C@@H]1O (stereo not given in full) | > 30 µM
CC(=O)OCC1=C(C(=O)O)N2C(=O)[C@@H](NC(=O)[C@H](N)c3ccccc3)[C@H]2SC1 | > 30 µM
C=C[C@H]1C[N@@]2CC[C@H]1C[C@H]2[C@H](O)c1ccnc2ccc(OC)cc12 | > 30 µM
